# System: TK-10 renal
# assay_summary: NCI tumour cell line growth inhibition, 48 h; in the data active = GI50 below about 0.43 µM; inactive = the rest
A correct response names exactly one class from True = active, False = inactive

Take a look at these entries with their results.
{"columns": ["compound", "target_under_test", "qualitative_label"],
 "data": [
  ["Cc1nc(N2CCC3(CC2)CO[C@@H](C)[C@H]3N)c(CO)nc1Sc1ccnc(N)c1Cl", "TK-10 renal", "True"],
  ["CCCC(CCC)C(=O)OCC1(CO)C/C(=C\\c2ccc(F)cc2)C(=O)O1 (stereo not drawn)", "TK-10 renal", "False"],
  ["COc1cccc(/C=C/C(=O)c2ccc(Cl)cc2Cl)c1", "TK-10 renal", "False"]
]}

Query block: Dear colleague, could you share the recorded outcome for "N#CCN/C=C\C(=O)c1ccc(Cl)cc1" when you have a moment?
Result block: False

Query block: For C=C1CCC2C(C)(COC(=O)CC)C(OC(=O)CC)CCC2(C)C1C/C=C1/C(=O)OCC1OC(=O)CC (stereo not drawn) , which call appears in the assay record?
Result block: False

Query block: Per the records of this test, what outcome belongs to CCOC(=O)CC1C(COC(=O)NC)OC(n2cnc3c(NC(=O)Nc4ccccc4)ncnc32)C1O[Si](C)(C)C(C)(C)C (stereo not drawn) ?
Result block: False

Taken from PubChem BioAssay (NCI).
